- System: HOP-18
- Protocol Description: NCI tumour cell line growth inhibition, 48 h
Calls of active or inactive are those of the source. Cut-off read from the data, not from the text of the source: active = GI50 up to about 1.1 µM and inactive = higher.
Could you please pick one outcome from this set? active, inactive

Below, 2 compounds whose answers are already recorded.
compound=CC1(C)CC(=O)C(CC2C(=O)c3ccccc3C2=O)C(=O)C1 label_value=inactive
compound=COC(=O)Nc1nc2cc(Br)ccc2[nH]1 label_value=inactive

Dear all, I need the recorded test outcome for O=C(O)CCc1coc2ccc(O)cc12 , thank you. inactive

Dear all, I need the recorded test outcome for COc1cc(-c2cccs2)sc1-c1cccs1 , thank you. inactive

* * *

- Tested on: HOP-62
- Protocol Description: NCI tumour cell line growth inhibition, 48 h
Calls of active or inactive are those of the source. No stated cut-off is given here; in the data, active = GI50 up to about 1.1 µM and inactive = higher.
Quantity Measured: GI50

Some solved cases for reference:
compound="CC(C)=C1CCC(CN2CCOCC2)C1=O (stereo not drawn)" result_value="> 55.5 µM (inactive)"
compound=CC1=C(c2cc(C(=O)Nc3cc(C)ccc3C)nc(N)n2)Sc2ccccc2N1 result_value="> 100 µM (inactive)"
compound=C=CCCCCCCCCC(=O)NS(=O)(=O)c1ccccc1 result_value="> 100 µM (inactive)"
compound=CCOC(=O)/C(=C\c1ccc(C#N)cc1)C(C)=O result_value="36.8 µM (inactive)"
compound=COc1ccc(-n2cnc3c(NC(C)(C)C(=O)O)ncnc32)cc1 result_value="> 100 µM (inactive)"
compound=C=CS(=O)(=O)c1c2cc(OC)ccc2nc2ccc(OC)cc12 result_value="14.8 µM (inactive)"
compound=CSc1nncc2[nH]cnc12 result_value="> 100 µM (inactive)"

// next item, GI50 requested
Would you mind telling me what GI50 value was observed for COc1cc(/C=N\c2nc(-c3ccc(NS(=O)(=O)c4ccc(Cl)c(OC)c4)cc3)cs2)ccc1O ? > 100 µM (inactive)

* * *

- Test system: LXFL 529
- Protocol Description: NCI tumour cell line growth inhibition, 48 h
Active and inactive are the calls of the source. Cut-off read from the data, not from the text of the source: active = GI50 up to about 1.1 µM and inactive = higher.
Could you please pick one outcome from this set? active, inactive

Below, 5 molecules whose answers are already recorded.
molecule=CC[C@@H]1C[C@H]2CC3c4[nH]c5ccc(O)cc5c4CCN(C2)C31 test_target="LXFL 529" label_value=inactive
molecule=C=CCNC1=C(C(=O)OCC)C(=O)CO1 test_target="LXFL 529" label_value=inactive
molecule="CC(=O)NC(CCCCN)C(=O)NCc1ccccc1 (stereo not given)" test_target="LXFL 529" label_value=inactive
molecule=COc1cc(-c2cccs2)sc1-c1cccs1 test_target="LXFL 529" label_value=inactive
molecule=O=C1C=C(NCCc2ccccc2)c2ccccc2C1=O test_target="LXFL 529" label_value=inactive

Dear all, I need the recorded test outcome for COC(=O)[C@H](CC(C)C)NC(=O)[C@H](Cc1ccccc1)N1CC2C=CC1C2 (stereo not given in full) , thank you. inactive

Dear all, I need the recorded test outcome for C=CCN(N=O)C(=O)N(CCC)CCCCC(NC(C)=O)C(=O)NCc1ccccc1 (stereo not given) , thank you. inactive

Dear all, I need the recorded test outcome for COc1cccc2c1C(=O)c1c(O)c3c(c(O)c1C2=O)C[C@@](O)(C(C)O)C[C@@H]3OC1CC(N)C(O)C(C)O1 (stereo not given in full) , thank you. active

Dear all, I need the recorded test outcome for N#Cc1ccccc1NC(=O)C(=O)C1NC(=S)NC1=O (stereo not given) , thank you. inactive
